# measured.on: T1, recombinant human MUC1-SEA (MUC1 antigen, Acrobiosystems, Cat: MU1-H52H9) (human, UniProt P15941 1039-1158)
# T1 construct: Bought protein, captured on an anti-His chip (so His-tagged)
# T1 sequence: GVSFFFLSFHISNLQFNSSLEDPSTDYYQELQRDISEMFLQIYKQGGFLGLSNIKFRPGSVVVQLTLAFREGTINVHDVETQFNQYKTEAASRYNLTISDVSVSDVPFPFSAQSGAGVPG
# assay.method.text: SPR; MUC1 antigen captured on anti-His CM5 chip, antibody as analyte

[
  {
    "binder": "HM4 LM3 variant of humanized anti-MUC1 antibody SP66 (antibody, V domains shown, Humanized IgG expressed in CHO cells; only variable domains tied to the variant) VH: EIQLVQSGAEVKKPGSSVKVSCKVTGHSITRGSSWHWMRQAPGQGLEWIGYIHYGGGTSYNPSLKSRATLTRDTSTNTFYMELSSLRSEDTAFYFCARYSYDITYRWFFDVWGQGTLVTVSS VL: DIQMTQSPSTLSASVGDRVTITCRASQNIGTSIHWYQQKPGKAPKLLIKYASESISGVPSRFSGSGSGTEFTLTISSLQPDDFATYYCQQNNNWPLTFGQGTKVEVK",
    "kon [M⁻¹ s⁻¹]": "2.88e+06"
  },
  {
    "binder": "HM3 LM3 variant of humanized anti-MUC1 antibody SP66 (antibody, V domains shown, Humanized IgG expressed in CHO cells; only variable domains tied to the variant) VH: EIQLVQSGAEVKKPGSSVKVSCKVTGHSITRGSSWHWMRQAPGQGLEWIGYIHYGGGTSYNPSLKSRATLTRDTSTNTAYMELSSLRSEDTAFYFCARYSYDITYRWFFDVWGQGTLVTVSS VL: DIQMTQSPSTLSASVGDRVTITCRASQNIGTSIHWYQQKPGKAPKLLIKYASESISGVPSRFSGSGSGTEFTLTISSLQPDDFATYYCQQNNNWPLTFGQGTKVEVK",
    "kon [M⁻¹ s⁻¹]": "4.47e+07"
  },
  {
    "binder": "HM3 LM2 variant of humanized anti-MUC1 antibody SP66 (antibody, V domains shown, Humanized IgG expressed in CHO cells; only variable domains tied to the variant) VH: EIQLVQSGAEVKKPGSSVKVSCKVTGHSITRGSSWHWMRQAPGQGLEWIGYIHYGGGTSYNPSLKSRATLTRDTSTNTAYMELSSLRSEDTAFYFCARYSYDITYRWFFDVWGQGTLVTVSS VL: DIQMTQSPSTLSASVGDRVTITCRASQNIGTSIHWYQQKPGKAPKLLIKRASESISGVPSRFSGSGSGTEFTLTISSLQPDDFATYYCQQNNNWPLTFGQGTKVEVK",
    "kon [M⁻¹ s⁻¹]": "2.65e+06"
  },
  {
    "binder": "HM5 LM2 variant of humanized anti-MUC1 antibody SP66 (antibody, V domains shown, Humanized IgG expressed in CHO cells; only variable domains tied to the variant) VH: EIQLVQSGAEVKKPGSSVKVSCKVTGHSITRGSSWHWMRQAPGQGLEWIGYIHYGGGTSYNPSLKSRITITRDTSTNTFYMELSSLRSEDTAFYFCARYSYDITYRWFFDVWGQGTLVTVSS VL: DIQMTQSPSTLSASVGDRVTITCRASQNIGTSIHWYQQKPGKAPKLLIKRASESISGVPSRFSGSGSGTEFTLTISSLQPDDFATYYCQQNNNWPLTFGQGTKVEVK",
    "kon [M⁻¹ s⁻¹]": "4.8e+06"
  }
]
